Biological target: HLA A*3201 (Homo sapiens, UniProt P04439, A270S/D101S/D185E/E176V/E277Q/F133L/G103R/G107R/G231S/H175R/I121M/I218V/I322F/K168Q/L105A/L300P/L318F/M331R/P208A/P217A/Q94H/R106L/R138Q/S129P/T104I/T323A/T345S/V100E/V321M/V358M)
Test: biochemical
Where a SMILES comes first, the peptide text is derived from it.
Class assignment keyed on IC50, ranges low range (below 1 nM), mid range (1 nM to below 10 nM), high range (10 nM or more)

* CC[C@H](C)[C@H](NC(=O)[C@H](Cc1ccc(O)cc1)NC(=O)CNC(=O)[C@H](CO)NC(=O)[C@@H](NC(=O)[C@@H](N)CCCCN)[C@@H](C)O)C(=O)N[C@@H](CO)C(=O)N[C@@H](CO)C(=O)N[C@@H](Cc1ccccc1)C(=O)O [3102.0408] (H-KTSGYISSF-OH) | low range
* CC[C@H](C)[C@H](NC(=O)[C@H](CO)NC(=O)[C@H](C)NC(=O)[C@H](Cc1ccc(O)cc1)NC(=O)[C@@H](NC(=O)[C@H](CCC(=O)O)NC(=O)[C@H](CC(N)=O)NC(=O)[C@@H](NC(=O)[C@@H](N)CC(C)C)[C@@H](C)O)[C@@H](C)CC)C(=O)O [3102.0445] (H-LTNEIYASI-OH) | high range
* CC(C)C[C@H](NC(=O)[C@H](Cc1ccccc1)NC(=O)[C@H](CO)NC(=O)[C@H](CC(C)C)NC(=O)[C@@H](N)CCCCN)C(=O)N[C@@H](CO)C(=O)N[C@@H](CCCNC(=N)N)C(=O)N[C@H](C(=O)N[C@@H](Cc1ccccc1)C(=O)O)C(C)C [3102.0332] (H-KLSFLSRVF-OH) | mid range
* CC(C)C[C@H](NC(=O)[C@H](CO)NC(=O)[C@H](CC(N)=O)NC(=O)[C@H](CCCNC(=N)N)NC(=O)[C@H](CC(C)C)NC(=O)CNC(=O)[C@H](Cc1ccc(O)cc1)NC(=O)[C@@H](NC(=O)[C@@H](N)CCCNC(=N)N)[C@@H](C)O)C(=O)O [3102.0438] (H-RTYGLRNSL-OH) | low range
* CC[C@H](C)[C@H](N)C(=O)N[C@H](C(=O)N[C@@H](Cc1ccc(O)cc1)C(=O)NCC(=O)N[C@@H](CCCNC(=N)N)C(=O)N[C@@H](CO)C(=O)N[C@@H](CC(N)=O)C(=O)N[C@@H](C)C(=O)N[C@H](C(=O)O)[C@@H](C)CC)C(C)C [3102.0369] (H-IVYGRSNAI-OH) | mid range
* CC[C@H](C)[C@H](NC(=O)[C@@H](NC(=O)[C@H](Cc1ccc(O)cc1)NC(=O)[C@H](CO)NC(=O)[C@@H](N)CCCCN)[C@@H](C)O)C(=O)N[C@@H](CCCNC(=N)N)C(=O)N[C@H](C(=O)N[C@@H](Cc1ccccc1)C(=O)N[C@@H](Cc1ccccc1)C(=O)O)C(C)C [3102.0345] (H-KSYTIRVFF-OH) | mid range
* CC[C@H](C)[C@H](NC(=O)[C@H](Cc1ccc(O)cc1)NC(=O)[C@H](CC(C)C)NC(=O)[C@H](CO)NC(=O)[C@@H](N)CCCCN)C(=O)N[C@H](C(=O)N[C@@H](CC(N)=O)C(=O)N[C@H](C(=O)N[C@@H](CC(C)C)C(=O)O)[C@@H](C)O)[C@@H](C)O [3102.0459] (H-KSLYITNTL-OH) | low range
* CC[C@H](C)[C@H](NC(=O)[C@@H](NC(=O)[C@H](CC(C)C)NC(=O)[C@@H](NC(=O)[C@H](CO)NC(=O)[C@H](CO)NC(=O)[C@@H](NC(=O)[C@H](CO)NC(=O)[C@H](C)N)[C@@H](C)CC)C(C)C)[C@@H](C)O)C(=O)O [3102.0373] (H-ASISSVLTI-OH) | high range

IN: # bin label for CC(C)C[C@H](NC(=O)[C@H](CC(C)C)NC(=O)[C@@H](N)CCCCN)C(=O)N[C@@H](CO)C(=O)N[C@@H](Cc1c[nH]cn1)C(=O)N[C@@H](Cc1ccccc1)C(=O)N[C@@H](Cc1ccc(O)cc1)C(=O)N1CCC[C@H]1C(=O)N[C@@H](C)C(=O)O [3102.0665] (H-KLLSHFYPA-OH)
OUT: high range

IN: # bin label for CC(C)[C@H](NC(=O)[C@H](Cc1ccccc1)NC(=O)[C@@H](NC(=O)[C@H](Cc1c[nH]cn1)NC(=O)[C@H](CCC(=O)O)NC(=O)[C@H](CCCNC(=N)N)NC(=O)[C@@H](NC(=O)[C@@H](N)CCCCN)C(C)C)[C@@H](C)O)C(=O)N[C@@H](CCCCN)C(=O)O [3102.0071] (H-KVREHTFVK-OH)
OUT: high range

IN: # bin label for CC[C@H](C)[C@H](NC(=O)[C@@H]1CCCN1C(=O)[C@H](CC(C)C)NC(=O)[C@@H](NC(=O)[C@H](CC(N)=O)NC(=O)[C@H](Cc1ccc(O)cc1)NC(=O)[C@H](CCSC)NC(=O)[C@@H](NC(=O)[C@@H](N)Cc1ccc(O)cc1)[C@@H](C)CC)[C@@H](C)CC)C(=O)O [3102.0384] (H-YIMYNILPI-OH)
OUT: high range

IN: # bin label for CC(C)C[C@H](NC(=O)[C@@H](N)Cc1ccc(O)cc1)C(=O)N[C@@H](Cc1ccccc1)C(=O)N[C@@H](CO)C(=O)N[C@@H](CCC(N)=O)C(=O)N[C@@H](CC(N)=O)C(=O)N[C@@H](Cc1ccc(O)cc1)C(=O)N[C@@H](CO)C(=O)N[C@@H](Cc1ccccc1)C(=O)O [3102.0410] (H-YLFSQNYSF-OH)
OUT: mid range

IN: # bin label for CC[C@H](C)[C@H](NC(=O)[C@H](C)NC(=O)[C@H](Cc1ccc(O)cc1)NC(=O)[C@H](CO)NC(=O)[C@H](Cc1c[nH]cn1)NC(=O)[C@H](Cc1ccccc1)NC(=O)[C@H](CC(C)C)NC(=O)[C@H](CC(C)C)NC(=O)[C@@H](N)CC(C)C)C(=O)O [3102.0379] (H-LLLFHSYAI-OH)
OUT: high range

---

Could you please report measured Normalized average relative binding affinity (ARB), HLA B*5301 for the items listed next?
Biological target: HLA B*5301 (Homo sapiens, UniProt P01889, A329T/A93T/A95T/C349S/D201E/D98Y/E176V/E187L/E204Q/E69T/G107R/I218V/K202T/L105A/L119I/N104I/Q94N/R106L/R155S/R180L/S101N/S121R/S35A/S48A/T118I/V127L/V306I/V36M/Y140S/Y91F)
Format: binding
Answers are plain numbers.

Solved entries (count: 2):
• LXXXXXXXX [3064.0010] = 0.14
• XXCXXXXXX [3064.0042] = 0.0065

Could I get Normalized average relative binding affinity (ARB), HLA B*5301 for every one of these entries?
1. CXXXXXXXX [3064.0002]
2. TXXXXXXXX [3064.0017]
3. XFXXXXXXX [3064.0025]

OUT:
1: 0.061; 2: 0.027; 3: 0.018

---

Molecular target: HLA B*5401 (Homo sapiens, UniProt P01889, A329T/C349S/D138N/D201E/E176V/E187T/E204Q/E69G/I76V/K202T/L119W/R155S/R180L/S121T/S35A/S48A/V127L/V306I/V36M/Y140L)
Type: binding
Could you please report measured Normalized average relative binding affinity(ARB) for the items listed next?
One number for each entry.

Solved entries (count: 3):
- XXXXIXXXX [3064.0088]: 0.13
- XXXIXXXXX [3064.0068]: 0.16
- XXXXGXXXX [3064.0086]: 0.19

Could I get Normalized average relative binding affinity(ARB) for every one of these entries?
1. XXXXXXXKX [3064.0149]
2. XXXXXXXAX [3064.0141]
3. XXXXPXXXX [3064.0093]
4. XXXGXXXXX [3064.0066]
5. XXXXXXXQX [3064.0154]
6. XXXXXYXXX [3064.0120]
7. XXXXXXEXX [3064.0124]
8. XXXXXXXMX [3064.0151]

OUT:
[0.099, 0.50, 0.51, 0.062, 0.11, 0.19, 0.26, 0.045]

Could I get Normalized average relative binding affinity(ARB) for every one of these entries?
1. XXXXXIXXX [3064.0108]
2. XXXWXXXXX [3064.0079]
3. XXXXXXXHX [3064.0147]
4. XXXXCXXXX [3064.0082]
5. XXXXXRXXX [3064.0115]
6. XXXXXXXEX [3064.0144]
7. XXXXXQXXX [3064.0114]
8. XXXXXXXPX [3064.0153]

OUT:
1: 0.81; 2: 1.0; 3: 0.043; 4: 0.39; 5: 0.11; 6: 0.13; 7: 0.11; 8: 0.72

Could I get Normalized average relative binding affinity(ARB) for every one of these entries?
1. XXXXXMXXX [3064.0111]
2. XXXXQXXXX [3064.0094]
3. XXXXLXXXX [3064.0090]
4. XXXXXXFXX [3064.0125]
5. XXXXXXWXX [3064.0139]
6. XXXRXXXXX [3064.0075]
7. XXXXXXHXX [3064.0127]
8. XXXXXXXTX [3064.0157]

OUT:
[0.43, 0.40, 0.15, 0.17, 0.22, 0.069, 0.27, 0.20]

Could I get Normalized average relative binding affinity(ARB) for every one of these entries?
1. XXXXSXXXX [3064.0096]
2. XXXTXXXXX [3064.0077]
3. XXXVXXXXX [3064.0078]
4. XXXXXDXXX [3064.0103]

OUT:
[0.18, 0.61, 1.00, 0.045]

Source listed as paper PMC2248166.
